Experiment: Thermal analysis (TG/DTA and TGA 7)
Type: physicochemical
Conditions: TGA 7, shallow crucible; air, 5 °C/min
MEASUREMENT TYPE: Td (°C)

NCCCCCC(O)(P(=O)(O)O)P(=O)(O)O [Compound 4, reference compound] = 215
NCCC(O)(P(=O)(O)O)P(=O)(O)O = 155
NCCCCCCCCC(O)(P(=O)(O)O)P(=O)(O)O = 191
NCCCCCCCCCC(O)(P(=O)(O)O)P(=O)(O)O = 189
NCCCCCCCCCCCC(O)(P(=O)(O)O)P(=O)(O)O = 191
NCCCCC(O)(P(=O)(O)O)P(=O)(O)O = 224
NCCCC(O)(P(=O)(O)O)P(=O)(O)O [Compound 2, reference compound] = 225
NCCCCCCCCCCC(O)(P(=O)(O)O)P(=O)(O)O = 204
NCCCCCCCC(O)(P(=O)(O)O)P(=O)(O)O = 197
NCCCCCCCCCCCCCCCC(O)(P(=O)(O)O)P(=O)(O)O = 181
